targetUnderTest: T1, EsCas13d, nuclease-dead (Eubacterium siraeum, UniProt B0MS50, R295A;H300A;R849A;H854A)
T1 sequence: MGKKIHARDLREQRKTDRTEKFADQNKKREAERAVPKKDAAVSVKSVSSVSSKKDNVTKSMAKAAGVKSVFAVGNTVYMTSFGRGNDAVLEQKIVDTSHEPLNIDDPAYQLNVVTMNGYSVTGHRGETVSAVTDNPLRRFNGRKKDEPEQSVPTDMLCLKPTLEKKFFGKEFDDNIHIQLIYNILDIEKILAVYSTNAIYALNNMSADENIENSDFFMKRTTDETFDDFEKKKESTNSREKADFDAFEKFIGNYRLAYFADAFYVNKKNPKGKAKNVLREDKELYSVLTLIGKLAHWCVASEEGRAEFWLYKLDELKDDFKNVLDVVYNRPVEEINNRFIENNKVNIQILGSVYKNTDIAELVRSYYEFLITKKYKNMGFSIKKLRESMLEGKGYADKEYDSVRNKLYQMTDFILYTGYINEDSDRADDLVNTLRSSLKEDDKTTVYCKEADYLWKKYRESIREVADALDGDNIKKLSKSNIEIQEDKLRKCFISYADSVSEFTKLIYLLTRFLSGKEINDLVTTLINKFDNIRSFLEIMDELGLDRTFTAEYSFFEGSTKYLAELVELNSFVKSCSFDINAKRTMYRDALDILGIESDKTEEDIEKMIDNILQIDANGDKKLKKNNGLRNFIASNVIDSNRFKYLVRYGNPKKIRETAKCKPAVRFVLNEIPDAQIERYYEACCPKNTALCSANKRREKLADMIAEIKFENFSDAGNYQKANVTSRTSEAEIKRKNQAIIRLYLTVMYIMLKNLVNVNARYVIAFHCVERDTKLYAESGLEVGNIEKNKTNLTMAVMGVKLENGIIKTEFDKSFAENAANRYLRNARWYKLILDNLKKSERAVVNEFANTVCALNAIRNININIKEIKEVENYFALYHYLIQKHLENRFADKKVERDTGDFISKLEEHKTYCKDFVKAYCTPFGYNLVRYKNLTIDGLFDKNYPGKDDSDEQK
assayMethodText: crRNA (strand 1, pre-loaded); Mg2+; 40 mM Tris-HCl pH 7.5, 150 mM NaCl, 6 mM MgCl2, 1 mM DTT, 0.1% Tween-20, 0.2 mg/ml BSA; 25 C; 10 min per concentration, then washed
conditionDetails: tags: His6-TwinStrep-SUMO cleaved; N-terminal SNAP kept (SNAP-Surface 488); label: 3' end held by stalled T7 RNA polymerase
property: Kd

• target 2 MT 5'PFS ACC 3'PFS ACU (mixed) RNA 1: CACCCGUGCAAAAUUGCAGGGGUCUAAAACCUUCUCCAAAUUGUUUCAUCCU RNA 2: GGGAAUGGAUCCACAUCUACGAAUUCACCAGGAUGAAACAAUUUGGAGAAGACUAGAUCGGAAGAGCACACGU = 7.1 nM

Asked: I would be grateful if you could share the reported Kd for target 1 A9G,A20U (mixed) RNA 1: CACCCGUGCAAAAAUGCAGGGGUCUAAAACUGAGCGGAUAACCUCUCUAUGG RNA 2: GGGAAUGGAUCCACAUCUACGAAUUCGUACCUUAGAGAGGUUGUCCGCUCACCGAGAUCGGAAGAGCACACGU .
Given back: 48 nM
